The reader will find reported viability decrease (inhibition) values listed item by item below.
Assay: CellTiter-Glo luminescent readout of SW480 viability loss, NPC library primary (AID 1117343)
Settings: CellTiter-Glo luminescence; at 20 µM (top of the series) unless noted

molecule	viability decrease (inhibition) / %
Cc1c(F)c(N2CCNC(C)C2)cc2c1c(=O)c(C(=O)O)cn2C1CC1 (configuration not stated)	0
C[N+](C)(C)CC[N+]1(C)Cc2c(Cl)c(Cl)c(Cl)c(Cl)c2C1	2.9
NCCCC(O)(P(=O)(O)O)P(=O)(O)O	-1.7
Cc1cc(CC(C)CC(C)(C)C)n(O)c(=O)c1 (configuration not stated)	95.7
CN1C(=O)OC(C)(C)C1=O	54.4
Nc1c(CC(=O)O)cccc1C(=O)c1ccc(Br)cc1	37.9
COc1ccc(Cc2cnc(N)nc2N)cc1OC	6.9
COc1cc(NCc2ccc3nc(N)nc(N)c3c2C)cc(OC)c1OC	142
COc1ccc(CCN(C)CCCN2CCc3cc(OC)c(OC)cc3CC2=O)cc1OC	-4.7
CC1(c2ccccc2)OC(C(=O)O)=CC1=O (configuration not stated)	4.5
COCC(=O)Nc1c(I)c(C(=O)NCC(O)CO)c(I)c(C(=O)N(C)CC(O)CO)c1I (configuration not stated)	-13
OCCc1ccccc1	11.9

====

Experiment: sensitizers of A549 cells to miR-34 induction, primary screen, imaging, A549 dox-inducible miR-34, nuclei and caspase counts (AID 1347080)
Conditions: A549 miR-34 inducible, Hoechst nuclei count, 48 h; measured here: total cells with miR-34 induction; stronger effect = lower value

compound	cell count
CC[C@H]1OC(=O)[C@H](C)[C@@H](O[C@H]2C[C@@](C)(OC)[C@@H](O)[C@H](C)O2)[C@H](C)[C@@H](O[C@@H]2O[C@H](C)C[C@H](N(C)C)[C@H]2O)[C@](C)(O)C[C@@H](C)/C(=N\OCOCCOC)[C@H](C)[C@@H](O)[C@]1(C)O	10400
C[N+]1(C)[C@@H]2CC[C@H]1CC(OC(=O)C(O)c1ccccc1)C2 (stereo partly drawn)	8390
O=C(O)Cc1sc(-c2ccccc2)nc1-c1ccc(Cl)cc1	10000
O=S1(=O)c2cccc3cccc(c23)N1CCCN1CCN(c2ccc(F)cc2)CC1	7340
CN[C@@H]1[C@@H](O[C@H]2O[C@H](CO)[C@@H](N)[C@H](O)[C@H]2O)O[C@H]2C[C@@H](N)[C@@H](O[C@H]3[C@H](O)[C@@H](O)[C@H](N)C[C@@H]3N)O[C@@H]2[C@@H]1O	9860
COc1cc(NS(C)(=O)=O)ccc1Nc1c2ccccc2nc2ccccc12	867
CCC(CC)(CC(=O)Nc1cccc(/C=C/c2nc(C3CCC3)cs2)c1)C(=O)O	7300
COc1cc(C2c3cc4c(cc3C(OC3OC5COC(C)OC5C(O)C3O)C3COC(=O)C23)OCO4)cc(OC)c1O (stereo not drawn)	3290
CC1(C)CC1C(=O)NC(=CCCCCSCC(N)C(=O)O)C(=O)O (stereo not drawn)	9810
NCCCCCCNS(=O)(=O)c1cccc2c(Cl)cccc12	4060
Cc1ccc(-c2ncc(Cl)cc2-c2ccc(S(C)(=O)=O)cc2)cn1	8800
CC(O)CN(CCN(CC(C)O)CC(C)O)CC(C)O (stereo not drawn)	9510
COC(=O)C(c1ccccc1Cl)N1CCc2sccc2C1 (stereo not drawn)	7680
C=C1c2c(Cl)ccc(O)c2C(O)=C2C(=O)[C@]3(O)C(O)=C(C(N)=O)C(=O)[C@@H](N(C)C)[C@@H]3[C@@H](O)[C@H]12	8250
S=C=Nc1ccc(N=C=S)cc1	7160
COC(=O)[C@H]1[C@H]2C[C@H]3c4[nH]c5ccccc5c4CCN3C[C@@H]2CC[C@@H]1O	8660
COc1ccc2cc([C@H](C)CO)ccc2c1	11000
CC[C@@H](C(=O)[C@@H](C)[C@@H](O)[C@H](C)CCc1ccc(C)c(O)c1C(=O)O)[C@H]1O[C@](CC)([C@H]2CC[C@](O)(CC)[C@H](C)O2)C[C@@H]1C	2440

# credit: PubChem BioAssay
